Biological target: Type-1 angiotensin II receptor B (Rattus norvegicus, UniProt P29089)
Sequence (P29089 whole entry): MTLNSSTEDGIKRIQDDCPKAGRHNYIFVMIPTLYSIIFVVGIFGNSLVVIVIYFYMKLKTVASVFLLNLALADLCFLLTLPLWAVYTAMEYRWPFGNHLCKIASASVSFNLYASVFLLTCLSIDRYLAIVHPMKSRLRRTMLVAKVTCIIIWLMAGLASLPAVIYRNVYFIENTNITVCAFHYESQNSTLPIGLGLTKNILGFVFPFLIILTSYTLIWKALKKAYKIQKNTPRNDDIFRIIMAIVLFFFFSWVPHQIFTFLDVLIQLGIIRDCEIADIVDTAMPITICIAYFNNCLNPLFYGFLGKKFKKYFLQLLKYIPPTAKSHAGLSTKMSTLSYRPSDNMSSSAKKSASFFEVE
Measured attribute: IC50 (nM)

Use the examples below as a reference point.
[[record]]
compound = "CCCCc1nc2c(C)cccc2n1Cc1ccc(NC(=O)[C@H](Cc2ccccc2)n2cccc2C(=O)O)cc1"
measured_result = 930

[[record]]
compound = "CCCCc1nc(Cl)c(CC(=O)O)n1Cc1ccc(NC(=O)[C@H](Cc2ccccc2)n2cccc2C)cc1"
measured_result = 140

[[record]]
compound = "CCCCc1nc(Cl)c(CC(=O)O)n1Cc1ccc(NC(=O)[C@H](Cc2ccccc2)n2cccc2)cc1"
measured_result = 210

[[record]]
compound = "CCCCc1nc(Cl)c(CO)n1Cc1ccc(NC(=O)C(Cc2ccccc2)c2nn[nH]n2)cc1 (stereo not given)"
measured_result = 2600

[[record]]
compound = "CCc1nc2c(C)cc(C)nc2n1Cc1ccc(NC(=O)[C@H](Cc2ccccc2)n2cccc2C(=O)O)cc1"
measured_result = 60

[[record]]
compound = "CCCCc1nc(Cl)c(CC(=O)O)n1Cc1ccc(NC(=O)[C@H](Cc2ccccc2)n2ccc(C(=O)OCC)c2C)cc1"
measured_result = 140

[[record]]
compound = "CCCCc1nc(Cl)c(CO)n1Cc1ccc(-c2ccccc2C(=O)O)cc1"
measured_result = 300

[[record]]
compound = "CCCCc1nc(Cl)c(CC(=O)O)n1Cc1ccc(NC(=O)[C@H](Cc2cccs2)n2cccc2C(=O)O)cc1"
measured_result = 24

[[record]]
compound = "CCCCc1nc(Cl)c(C(=O)O)n1Cc1ccc(NC(=O)[C@H](Cc2cccs2)n2cccc2)cc1"
measured_result = 670

[[record]]
compound = "CCCCc1nc(Cl)c(CO)n1Cc1ccc(NC(=O)C(=O)c2ccccc2)cc1"
measured_result = 10900


A: CCCCc1nc(Cl)c(CCC(=O)OC)n1Cc1ccc(NC(=O)[C@H](Cc2ccccc2)n2cccc2C(=O)OC)cc1
B: CCCCc1nc(Cl)c(CC(=O)OC)n1Cc1ccc(NC(=O)[C@H](Cc2cccs2)n2cccc2C(=O)OC)cc1
C: CCCCc1nc(Cl)c(C(=O)O)n1Cc1ccc(NC(=O)[C@H](Cc2ccccc2)n2cccc2C(=O)O)cc1
D: CCCCc1nc(Cl)c(CC(=O)O)n1Cc1ccc(NC(=O)[C@H](Cc2ccccc2)n2c(C)ccc2C)cc1
Prompt: Descending sort on IC50 required. Give your ranking as a list of the labels in the requested order.
Completion: B, D, A, C
